biological target: RBM39 (Homo sapiens, UniProt Q14498+Q66K64); test: TR-FRET of indisulam-induced ternary complex
pEC50: −log10 of the molar value.

>  <structure.notation>
NS(=O)(=O)c1ccc(S(=O)(=O)Nc2cccc3c(Cl)c[nH]c23)cc1

>  <pEC50>
5.64

$$$$

* * *

target: RBM23 (Homo sapiens, UniProt Q66K64+Q86U06); test: TR-FRET of indisulam-induced ternary complex
pEC50: −log10 of the molar value.

>  <structure.notation>
NS(=O)(=O)c1ccc(S(=O)(=O)Nc2cccc3c(Cl)c[nH]c23)cc1

>  <pEC50>
5.59

$$$$

* * *

molecular target: DCAF15 (Homo sapiens, UniProt Q14498+Q66K64); experiment: TR-FRET of indisulam-induced ternary complex; type: binding

>  <structure.notation>
NS(=O)(=O)c1ccc(S(=O)(=O)Nc2cccc3c(Cl)c[nH]c23)cc1

>  <EC50 [nM]>
2270

$$$$
